TARGET DESC: human progesterone hormone receptor (Homo sapiens)
Construct: The receptor was obtained in cytosol from human T-47D breast cells and [^3H]-R5020 was used as the radioligand; endogenous in cells
Sequence (P06401 whole entry): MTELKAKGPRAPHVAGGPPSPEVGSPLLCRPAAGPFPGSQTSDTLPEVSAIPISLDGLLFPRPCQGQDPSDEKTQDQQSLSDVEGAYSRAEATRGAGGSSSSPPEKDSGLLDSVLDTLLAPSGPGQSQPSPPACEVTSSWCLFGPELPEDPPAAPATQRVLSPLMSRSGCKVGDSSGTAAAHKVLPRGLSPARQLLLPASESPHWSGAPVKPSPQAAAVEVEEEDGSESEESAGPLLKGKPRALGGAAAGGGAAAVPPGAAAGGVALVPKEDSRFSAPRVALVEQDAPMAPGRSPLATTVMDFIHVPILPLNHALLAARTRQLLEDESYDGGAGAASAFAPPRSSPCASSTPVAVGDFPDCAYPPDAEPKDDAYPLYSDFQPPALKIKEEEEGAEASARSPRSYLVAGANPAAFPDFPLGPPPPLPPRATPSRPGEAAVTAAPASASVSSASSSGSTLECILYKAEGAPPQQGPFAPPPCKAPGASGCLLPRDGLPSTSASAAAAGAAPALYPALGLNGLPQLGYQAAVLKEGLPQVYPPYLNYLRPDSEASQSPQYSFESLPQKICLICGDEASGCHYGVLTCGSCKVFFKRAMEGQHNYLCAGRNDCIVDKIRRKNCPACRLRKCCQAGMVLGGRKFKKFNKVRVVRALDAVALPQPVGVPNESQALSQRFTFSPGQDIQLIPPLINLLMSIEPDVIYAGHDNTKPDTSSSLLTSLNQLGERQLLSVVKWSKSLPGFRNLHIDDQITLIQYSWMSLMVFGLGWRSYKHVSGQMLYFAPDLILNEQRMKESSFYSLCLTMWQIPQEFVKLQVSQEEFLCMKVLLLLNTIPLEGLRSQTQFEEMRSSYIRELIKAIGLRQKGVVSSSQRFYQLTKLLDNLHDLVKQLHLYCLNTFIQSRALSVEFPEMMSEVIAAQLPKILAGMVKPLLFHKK
EXPERIMENTAL DETAILS: Receptor binding, inhibition of [3H]-R5020 binding in T-47D cytosol
STUDY CONDITIONS: cytosol from human T-47D breast cells, 0.4 nM [3H]-R5020, 4 hours at 4° C.; read-out: Relative Binding Affinity hPR IC50
pIC50: −log10 of the molar value.
Documented pIC50 across a set of compounds

# COMPOUND, pIC50
records = [
    ("CC#CC1(N(C)O)CCC2C3CCC4=CC(=O)CCC4=C3C(c3ccc(N(C)C)cc3)CC21C (stereo not shown)", 8.15),
    ("CN(C)c1ccc(C2CC3(C)C(CCC34CCCN4O)C3CCC4=CC(=O)CCC4=C23)cc1 (stereo not shown)", 8.46),
    ("CC#C[C@]1(NO)CC[C@H]2[C@@H]3CCC4=CC(=O)CCC4=C3[C@@H](c3ccc(N(C)C)cc3)C[C@@]21C", 7.84),
    ("CC#C[C@]1(N)CC[C@H]2[C@@H]3CCC4=CC(=O)CCC4=C3[C@@H](c3ccc(N(C)C)cc3)C[C@@]21C", 8.08),
    ("CC1CCC2(CCC3C4CCC5=CC(=O)CCC5=C4C(c4ccc(N(C)C)cc4)CC32C)N1O (stereo not shown)", 8.28),
    ("CC#CC1(NC(C)=O)CCC2C3CCC4=CC(=O)CCC4=C3C(c3ccc(N(C)C)cc3)CC21C (stereo not shown)", 8.89),
    ("CC#C[C@]1(NC=O)CC[C@H]2[C@@H]3CCC4=CC(=O)CCC4=C3[C@@H](c3ccc(N(C)C)cc3)C[C@@]21C", 9.15),
]

----------
Test system: rabbits
EXPERIMENTAL DETAILS: McGinty test (progestational/agonist activity, McPhail score)
Type: in vivo
Design: scale not given here
STUDY CONDITIONS: rabbit, dose 0.3 micrograms, test compound alone

# COMPOUND, McPhail Index, McGinty Assay (Agonist)
rows = [
    ("CC#C[C@]1(N)CC[C@H]2[C@@H]3CCC4=CC(=O)CCC4=C3[C@@H](c3ccc(N(C)C)cc3)C[C@@]21C", 0),
    ("CC#C[C@]1(NC=O)CC[C@H]2[C@@H]3CCC4=CC(=O)CCC4=C3[C@@H](c3ccc(N(C)C)cc3)C[C@@]21C", 0),
    ("CC#CC1(N(C)O)CCC2C3CCC4=CC(=O)CCC4=C3C(c3ccc(N(C)C)cc3)CC21C (stereo not drawn)", 0),
]
